# credit: patent US20230110188A1

Molecular target: T1, Human MuSK (R&D Systems, cat. 10189-MK, histidine tag) (human, UniProt O15146 24-495)
T1 construct: Bought protein; also called human monomeric MuSK-6xhis; not shown: histidine tag (6xhis)
T1 sequence: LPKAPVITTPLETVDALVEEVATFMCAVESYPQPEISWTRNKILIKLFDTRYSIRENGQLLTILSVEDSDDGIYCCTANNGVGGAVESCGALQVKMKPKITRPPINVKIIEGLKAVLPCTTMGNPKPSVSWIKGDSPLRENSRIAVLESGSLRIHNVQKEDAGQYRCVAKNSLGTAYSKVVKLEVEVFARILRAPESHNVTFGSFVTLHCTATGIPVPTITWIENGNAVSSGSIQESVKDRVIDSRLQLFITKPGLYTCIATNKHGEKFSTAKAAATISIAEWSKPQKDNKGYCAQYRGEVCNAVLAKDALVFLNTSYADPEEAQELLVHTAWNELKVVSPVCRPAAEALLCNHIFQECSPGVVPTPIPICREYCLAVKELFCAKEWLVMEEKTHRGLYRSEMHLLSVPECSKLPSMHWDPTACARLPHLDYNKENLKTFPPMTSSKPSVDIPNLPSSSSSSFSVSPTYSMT
Test: SPR (Biacore), MuSK-coated chip presaturated with 500 nM 3D10a (competitor)
measurement-kind: extra amplitude (%)
Hi! Could you send only the number? It should be in %, unit omitted.

Recorded result, 3D10a (antibody, human IgG1, kappa, L234A L235A, V domains shown) VH: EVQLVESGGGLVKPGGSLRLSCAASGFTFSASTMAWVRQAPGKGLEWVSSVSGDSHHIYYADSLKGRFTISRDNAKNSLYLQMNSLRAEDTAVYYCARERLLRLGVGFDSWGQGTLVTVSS VL: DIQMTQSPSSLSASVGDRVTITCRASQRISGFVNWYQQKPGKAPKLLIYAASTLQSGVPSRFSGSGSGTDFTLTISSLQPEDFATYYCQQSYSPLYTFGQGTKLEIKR , extra amplitude (%): 1.8

Recorded result, 3D9b (antibody, human IgG1, kappa, L234A L235A, V domains shown) VH: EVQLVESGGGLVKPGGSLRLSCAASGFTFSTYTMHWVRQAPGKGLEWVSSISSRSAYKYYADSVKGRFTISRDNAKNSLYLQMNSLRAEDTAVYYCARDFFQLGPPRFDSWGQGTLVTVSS VL: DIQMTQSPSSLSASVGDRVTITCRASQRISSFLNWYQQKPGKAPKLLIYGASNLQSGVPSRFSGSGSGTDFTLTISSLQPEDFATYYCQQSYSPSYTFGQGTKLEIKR , extra amplitude (%): 8

Recorded result, 4D3 (antibody, human IgG1, kappa, L234A L235A, V domains shown) VH: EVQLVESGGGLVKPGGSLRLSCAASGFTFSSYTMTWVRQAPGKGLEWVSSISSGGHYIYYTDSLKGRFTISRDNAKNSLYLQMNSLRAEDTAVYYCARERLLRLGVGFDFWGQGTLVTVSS VL: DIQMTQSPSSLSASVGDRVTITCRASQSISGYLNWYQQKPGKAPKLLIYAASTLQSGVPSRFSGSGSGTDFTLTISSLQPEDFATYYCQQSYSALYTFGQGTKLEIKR , extra amplitude (%): 1.6

Recorded result, 3F6c (antibody, human IgG1, kappa, L234A L235A, V domains shown) VH: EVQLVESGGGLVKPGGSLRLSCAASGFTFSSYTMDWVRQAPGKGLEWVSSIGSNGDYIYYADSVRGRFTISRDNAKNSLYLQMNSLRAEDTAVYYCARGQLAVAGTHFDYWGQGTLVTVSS VL: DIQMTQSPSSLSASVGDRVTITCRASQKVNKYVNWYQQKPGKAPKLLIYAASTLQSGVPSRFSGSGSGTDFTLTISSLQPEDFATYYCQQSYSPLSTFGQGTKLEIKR , extra amplitude (%): 1
